For each of the compounds below, state its IC50.

IC50 on LSD-1 enzyme (Homo sapiens (Human)) for Cc1ncc(-c2c(-c3ccc(C#N)cc3)nc(OC[C@@H]3CCCN(C)C3)n3ccnc23)cc1C#N is ≤ 50 nM

Form: item COc1ncc(-c2c(-c3ccc(C#N)cc3)nc(OC[C@@H]3CCCN(CCC#N)C3)n3ccnc23)cc1F ; test system LSD-1 enzyme (Homo sapiens (Human)); IC50: 50 to 500 nM

// assay LSD-1 enzyme (Homo sapiens (Human)), entry CCc1ccc(-c2c(-c3ccc(C#N)cc3)nc(OC[C@@H]3CCCN(C)C3)n3ccnc23)cn1 , IC50 value = 50 to 500 nM

Lab note: compound CN1CCN(C(=O)Cc2ccc(-c3c(-c4ccc(C#N)cc4)nc(OC[C@@H]4CCCN(C)C4)n4ccnc34)cc2)CC1 tested on LSD-1 enzyme (Homo sapiens (Human)); recorded IC50 was ≤ 50 nM

Field IC50 (LSD-1 enzyme (Homo sapiens (Human))), entry CN1CCC[C@@H](COc2nc(-c3ccc(C#N)cc3)c(-c3ccc(CN4CCOCC4)cc3F)c3nccn23)C1 : ≤ 50 nM

For the compound Cc1ncc(-c2c(-c3ccc(C#N)cc3)nc(N3CCC(N(C)C)CC3)n3ccnc23)cc1C#N , the measured IC50 on LSD-1 enzyme (Homo sapiens (Human)) was 50 to 500 nM

Lab note: compound CN1CCC[C@@H](COc2nc(-c3ccc(C#N)cc3)c(-c3ccc(N(C)C)nc3)c3nccn23)C1 tested on LSD-1 enzyme (Homo sapiens (Human)); recorded IC50 was ≤ 50 nM

###

Hi! I'm sharing some pIC50 results obtained with LSD-1 enzyme (Homo sapiens (Human), UniProt O60341).
pIC50: −log10 of the molar value.

Form: item CN1CC[C@@H](COc2nc(-c3ccc(C#N)cc3)c(-c3ccc4c(c3)CC(=O)N4C)c3nccn23)C1 [Example 23] ; test system LSD-1 enzyme (Homo sapiens (Human), UniProt O60341); pIC50: 6.30 to 7.30

Assay LSD-1 enzyme (Homo sapiens (Human), UniProt O60341), sample CN1CCC[C@@H](COc2nc(-c3ccc(C#N)cc3)c(-c3ccc(CN4CCOCC4)c(F)c3)c3nccn23)C1 [Example 80] , pIC50 read: ≥ 7.30

pIC50 of CN1CC[C@@H](COc2nc(-c3ccc(C#N)cc3)c(-c3ccc4c(c3)ncn4C)c3nccn23)C1 [Example 25] , assay on LSD-1 enzyme (Homo sapiens (Human), UniProt O60341), is 6.30 to 7.30

Entry Cc1ccc(-c2c(-c3ccc(C#N)cc3)nc(N3CC[C@@H](N(C)C)C3)n3ccnc23)cc1CO [Example 100] , LSD-1 enzyme (Homo sapiens (Human), UniProt O60341) data, pIC50 value: ≥ 7.30

Item CN1CCC[C@@H](COc2nc(-c3ccc(C#N)cc3)c(-c3ccc4c(c3)CC(C(=O)N(C)C)O4)c3nccn23)C1 (stereo partly drawn) [Example 20] was tested on LSD-1 enzyme (Homo sapiens (Human), UniProt O60341); the reported pIC50 is ≥ 7.30

Entry CN1CCC[C@@H](COc2nc(-c3ccc(C#N)cc3)c(-c3ccc(CO)c(Cl)c3)c3nccn23)C1 [Example 101] under LSD-1 enzyme (Homo sapiens (Human), UniProt O60341) had pIC50 of ≥ 7.30

So the reported pIC50 for CN1CCC[C@@H](COc2nc(-c3ccc(C#N)cc3)c(-c3ccc(CCN4CCOCC4)cc3)c3nccn23)C1 [Example 11] , on LSD-1 enzyme (Homo sapiens (Human), UniProt O60341), turned out to be 6.30 to 7.30

So the reported pIC50 for Cc1ccc(-c2c(-c3ccc(C#N)cc3)nc(OC[C@@H]3CCCN(C)C3)n3ccnc23)cc1C#N [Example 96] , on LSD-1 enzyme (Homo sapiens (Human), UniProt O60341), turned out to be ≥ 7.30

Lab note: compound C[C@H](O)CN1CCC[C@@H](COc2nc(-c3ccc(C#N)cc3)c(-c3ccc4c(c3)oc(=O)n4C)c3nccn23)C1 [Example 134] tested on LSD-1 enzyme (Homo sapiens (Human), UniProt O60341); recorded pIC50 was ≥ 7.30

Value (pIC50, LSD-1 enzyme (Homo sapiens (Human), UniProt O60341)) for record COc1ncc(-c2c(-c3ccc(C#N)cc3)nc(N3CCC(N(C)C)CC3)n3ccnc23)cc1F [Example 49] = ≥ 7.30

I looked up CN1CCC[C@@H](COc2nc(-c3ccc(C#N)cc3)c(-c3cnc4c(c3)CCN4C)c3nccn23)C1 [Example 77] and its pIC50 for LSD-1 enzyme (Homo sapiens (Human), UniProt O60341) was ≥ 7.30

Short answer on LSD-1 enzyme (Homo sapiens (Human), UniProt O60341) for COc1ccc(-c2c(-c3ccc(C#N)cc3)nc(OC[C@@H]3CCCN(C)C3)n3ccnc23)cn1 [Example 3] , pIC50: ≥ 7.30

Cc1ccc(-c2c(-c3ccc(C#N)cc3)nc(OC[C@@H]3CCCN(C)C3)n3ccnc23)cc1C(C)O (stereo partly drawn) [Example 93] tested on LSD-1 enzyme (Homo sapiens (Human), UniProt O60341) gave pIC50: ≥ 7.30

Field pIC50 (system: LSD-1 enzyme (Homo sapiens (Human), UniProt O60341)) for entry Cn1c(=O)oc2cc(-c3c(-c4ccc(C#N)cc4)nc(OC[C@@H]4CCCN(CCC#N)C4)n4ccnc34)ccc21 [Example 83] = ≥ 7.30

Measured pIC50 (LSD-1 enzyme (Homo sapiens (Human), UniProt O60341)), entry COC(=O)N(C)Cc1ccc(-c2c(-c3ccc(C#N)cc3)nc(OC[C@@H]3CCCN(C)C3)n3ccnc23)cc1F [Example 40] : ≥ 7.30
